Test system: Orpinomyces sp. strain PC-2 endoxylanase XynA-1 (purified native enzyme, 29 kDa)
Experiment: Effect of reagents on purified endoxylanase activity (residual activity on oat spelt xylan)
Assay type: biochemical
Conditions: reagent 1 mM; preincubated 22° C. 10 min, residual activity at 40° C., 50 mM piperazine-HCl pH 5.5; control without reagent = 100%
Procedure: Enzyme assays: All enzyme assays were carried out in duplicate and in 50 mM piperazine/HCl buffer at pH 5.5 and 40° C. unless otherwise stated. a. […] The reaction tube was then placed in boiling water for 5 min before determining the absorbance at 550 nm (A550 nm). […] The effects of various metal ions and reagents on xylanase activity were determined in 50 mM piperazine-HCl, pH 5.5. […]
quantityMeasured: Relative activity (%)

{"columns": ["compound", "unitsLabel", "numericValue"],
 "data": [
  ["O=C1CCC(=O)N1Br [N-Bromosuccinimide]", "%", 0],
  ["O=[N+]([O-])c1ccc(O)c(CBr)c1", "%", 85.5],
  ["OCCS [β-Mercaptoethanol]", "%", 96.7],
  ["O=C(O)c1cc[c]([Hg+])cc1.[OH-] [Hydroxymercuribenzoate, p-hydroxymercuribenzoate]", "%", 0]
]}
